# Measurement target: b-Raf (V600E) (Homo sapiens (Human), UniProt P15056, V600E)
# Sequence (P15056 whole entry V600E): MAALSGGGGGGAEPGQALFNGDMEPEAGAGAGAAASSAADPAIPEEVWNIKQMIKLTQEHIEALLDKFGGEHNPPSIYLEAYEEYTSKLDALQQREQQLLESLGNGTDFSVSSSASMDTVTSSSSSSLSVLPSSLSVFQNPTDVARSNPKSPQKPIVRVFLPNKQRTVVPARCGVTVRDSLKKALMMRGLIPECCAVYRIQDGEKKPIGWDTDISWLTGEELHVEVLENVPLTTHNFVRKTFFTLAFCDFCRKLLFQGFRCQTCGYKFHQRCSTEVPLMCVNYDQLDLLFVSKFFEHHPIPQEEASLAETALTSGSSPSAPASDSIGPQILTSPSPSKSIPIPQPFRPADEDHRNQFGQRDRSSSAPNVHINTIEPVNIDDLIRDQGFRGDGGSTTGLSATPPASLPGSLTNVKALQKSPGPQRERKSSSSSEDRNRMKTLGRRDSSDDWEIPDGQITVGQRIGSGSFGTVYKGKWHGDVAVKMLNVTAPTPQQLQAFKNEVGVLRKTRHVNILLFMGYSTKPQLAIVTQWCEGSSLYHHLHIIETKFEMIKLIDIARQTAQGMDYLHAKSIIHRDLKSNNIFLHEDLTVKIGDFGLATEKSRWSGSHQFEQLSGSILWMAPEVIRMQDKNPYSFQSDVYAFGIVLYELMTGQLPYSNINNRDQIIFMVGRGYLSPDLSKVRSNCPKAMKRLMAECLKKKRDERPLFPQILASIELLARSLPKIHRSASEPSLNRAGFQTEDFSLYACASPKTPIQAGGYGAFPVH
# Test protocol: In vitro Raf activity determination (Alpha Screen, phospho-MEK), b-Raf (V600E)
# Protocol conditions: ATP 10 μM, 60 min pre-incubation, 3 hours reaction
Experimental readout: IC50 (nM)

Worked examples, 3 molecules total:
# Molecule, Test result
records = [
    ("CCOc1ncc(-c2cc(NC(=O)c3ccnc(C(C)(C)C#N)c3)ccc2C)cc1C1(O)COC1", 4.93),
    ("COc1ncc(-c2cc(NC(=O)c3cc(C(C)(C)N)cc(C(F)(F)F)c3)ccc2C)cc1C1(F)COC1", 2.96),
    ("Cc1ccc(C(=O)Nc2cccc(C(F)(F)F)c2)cc1-c1cccc(C2(C)COC2)c1", 2.3),
]

[P] Cc1ncc(NC(=O)c2cccc(C(F)(F)F)c2)cc1-c1cc(C2(F)COC2)c(=O)n(CC(O)CO)c1 (stereo not shown)
[Q] COc1ncc(-c2cc(NC(=O)c3cc(C(C)(C)N)cc(C(F)(F)F)c3)cnc2C)cc1C1(C(F)F)COC1
[R] CCOc1ncc(-c2cc(NC(=O)c3ccnc(C(F)(F)F)c3)ccc2C)cc1C1(O)COC1
[S] COc1ncc(-c2cc(NC(=O)c3ccnc(C(C)(C)O)c3)cnc2C)cc1C1(F)COC1
I would appreciate it if you could sort these 4 molecules by IC50, starting from the smallest number. // format: requested-order list of labels
R, Q, S, P

* * *

# Measurement target: C-Raf FL (Homo sapiens (Human), UniProt P04049, Y340E/Y341E)
# Sequence (P04049 whole entry Y340E/Y341E): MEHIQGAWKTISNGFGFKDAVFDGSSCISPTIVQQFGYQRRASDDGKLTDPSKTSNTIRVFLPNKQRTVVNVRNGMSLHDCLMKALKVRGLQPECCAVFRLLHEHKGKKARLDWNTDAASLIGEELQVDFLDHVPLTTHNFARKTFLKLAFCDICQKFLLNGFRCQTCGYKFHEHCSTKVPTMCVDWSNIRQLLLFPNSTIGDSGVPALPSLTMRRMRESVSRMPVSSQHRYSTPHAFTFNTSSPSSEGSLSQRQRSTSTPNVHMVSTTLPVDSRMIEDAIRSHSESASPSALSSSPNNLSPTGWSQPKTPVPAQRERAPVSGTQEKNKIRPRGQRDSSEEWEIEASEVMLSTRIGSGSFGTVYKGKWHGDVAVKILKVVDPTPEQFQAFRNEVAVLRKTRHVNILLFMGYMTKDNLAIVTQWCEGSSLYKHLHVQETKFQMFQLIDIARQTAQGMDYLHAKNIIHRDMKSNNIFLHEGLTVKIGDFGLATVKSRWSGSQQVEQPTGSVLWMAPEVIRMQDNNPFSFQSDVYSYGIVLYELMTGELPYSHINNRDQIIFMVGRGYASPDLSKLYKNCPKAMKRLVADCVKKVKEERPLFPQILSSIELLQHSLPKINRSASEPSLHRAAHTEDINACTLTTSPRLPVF
# Sequence (P63104 whole entry partner): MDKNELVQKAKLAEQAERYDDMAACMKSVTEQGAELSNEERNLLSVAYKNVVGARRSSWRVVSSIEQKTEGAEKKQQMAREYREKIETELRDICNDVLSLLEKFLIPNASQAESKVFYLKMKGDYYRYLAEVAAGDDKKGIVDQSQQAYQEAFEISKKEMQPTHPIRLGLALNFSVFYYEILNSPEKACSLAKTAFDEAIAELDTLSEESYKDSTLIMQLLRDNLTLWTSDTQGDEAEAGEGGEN
# Test protocol: In vitro Raf activity determination (Alpha Screen, phospho-MEK), C-Raf FL (full length, Y340E/Y341E)
# Type: biochemical
# Protocol conditions: ATP 1 μM; 60 min pre-incubation; 1 hour reaction; column head does not say FL or TR
pIC50: −log10 of the molar value.
Experimental readout: pIC50

# annotated cases, reported pIC50 shown
# Compound, pIC50
rows = [
    ("COc1ncc(-c2cc(NC(=O)c3cc(C(C)(C)F)ccn3)ccc2C)cc1C1(O)COC1", 9.29),
    ("Cc1ccc(NC(=O)c2cccc(C(F)(F)F)c2)cc1-c1cc(C2(O)COC2)cc(C2(F)COC2)c1", 9.25),
    ("Cc1ncc(NC(=O)c2cccc(C(F)(F)F)c2)cc1-c1cc(C2COC2)c2nccn2n1", 9.52),
    ("COc1ncc(-c2cc(NC(=O)c3cc(C(F)(F)F)ccn3)ccc2C)cc1C1(F)COC1", 9.52),
]

[P] COc1ncc(-c2cc(NC(=O)c3cc(C(C)(C)C#N)ccn3)ccc2C)cc1C1(F)COC1
[Q] COc1cc(-c2cc(NC(=O)c3ccnc(C(C)(C)C#N)c3)ccc2C)cc(C2COC2)c1
[R] CCOc1ncc(-c2cc(NC(=O)c3ccnc(C(C)(C)F)c3)cnc2C)cc1C1(CF)COC1 [Example 131]
[S] CCOc1ncc(-c2cc(NC(=O)c3ccnc(C(F)(F)F)c3)cnc2C)cc1C1(C)COC1
Arrange items by their pIC50 values in increasing order. Respond with the label ranking, as requested.
Q, P, R, S

* * *

# Measurement target: C-Raf FL (Homo sapiens (Human), UniProt P04049, Y340E/Y341E)
# Test protocol: In vitro Raf activity determination (Alpha Screen, phospho-MEK), C-Raf FL (full length, Y340E/Y341E)
# Protocol conditions: ATP 1 μM; 60 min pre-incubation; 1 hour reaction; column head does not say FL or TR
Experimental readout: IC50 (nM)

Below, 5 compounds whose answers are already recorded.
# Compound, IC50 / nM
rows = [
    ("Cc1ccc(NC(=O)c2cc(C(F)(F)F)cnn2)cc1-c1cc2c(c(C3CCOCC3)c1)NC(=O)C(C)(CO)O2 (stereo not drawn) [Example 195]", 0.03),
    ("CCOc1ncc(-c2cc(NC(=O)c3cnnc(C(F)(F)F)c3)ccc2C)cc1C1(C)COC1 [Example 67]", 0.078),
    ("COc1ncc(-c2cc(NC(=O)c3ccnc(C(C)(C)C#N)c3)ccc2C)cc1C1(C=O)COC1 [Example 43]", 2.67),
    ("Cc1ccc(NC(=O)c2ccnc(C(C)(C)C#N)c2)cc1-c1cnc(OC2CCOCC2)c(C2(O)COC2)c1 [Example 33]", 0.804),
    ("COC1(c2cc(-c3cc(NC(=O)c4ccnc(C(C)(F)F)c4)ccc3C)cnc2OCCO)COC1 [Example 60]", 0.203),
]

[A] Cc1ccc(NC(=O)c2ccnc(C(C)(F)F)c2)cc1-c1cc(OCCO)nc(C2(CF)COC2)c1 [Example 56]
[B] COc1ncc(-c2cc(NC(=O)c3ccnc(C(F)(F)F)c3)cnc2C)cc1C1(F)COC1 [Example 79]
Hi there! Just curious which has the higher IC50 between A and B . Your choice should be expressed through its label.
B

[1] Cc1ncc(NC(=O)c2ccc(CO)c(C(F)(F)F)c2)cc1-c1cccc(C2COC2)c1 [Example 7]
[2] COc1ncc(-c2cc(NC(=O)c3ccnc(C(F)(F)F)c3)cnc2C)cc1C1(O)COC1 [Example 75]
Please compare: 1 and 2 . Report which one has the smaller IC50 value. When you have decided, please share the label of that item.
1
(1: 1 nM, 2: 6.36 nM)

[A] CCOc1ncc(-c2cc(NC(=O)c3ccnc(C(C)(C)C#N)c3)ccc2C)cc1C1(O)COC1 [Example 121]
[B] Cc1ncc(NC(=O)c2ccnc(C(C)(C)C#N)c2)cc1-c1cc(C2(O)COC2)cc(C2(F)COC2)c1 [Example 143]
I'd appreciate it if you could identify which of A and B has the greater IC50. Your answer should be the label of the entry you select.
B
(B: 4.36 nM, A: 0.975 nM)

[1] COc1ncc(-c2cc(NC(=O)c3cc(C(F)(F)F)ccn3)ccc2C)cc1C1(O)COC1 [Example 84]
[2] Cc1ccc(NC(=O)c2ccnc(C3(C(F)(F)F)CC3)c2)cc1-c1cc(OC[C@H](O)CO)nc(C2CCOCC2)c1 [Example 275]
Which one would you say has the larger IC50 value: 1 , or 2 ? Label of pick, please.
1
(1: 0.351 nM, 2: 0.2 nM)

[A] CCOc1nnc(-c2cc(NC(=O)c3ccnc(C(C)(C)F)c3)cnc2C)cc1C1(C)COC1 [Example 128]
[B] CCOc1ncc(-c2cc(NC(=O)c3ccnc(C(C)(C)C#N)c3)ccc2C)cc1C1(CF)COC1 [Example 31]
Sorting ascending by IC50, which comes first: A or B ? Give the label under which the chosen entry appears.
B

The measurements presented in this section are drawn from patent US10167279B2.
